- SYSTEM NAME: HLA-A*02:01;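 also: lysates heated 10 min at 37–73 °C, complexes pulled down with pan-HLA I antibody, peptide signal by DIA-MS relative to 37 °C, Tm where half the complex is unfolded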
- EXPERIMENTAL DETAILS: thermal melting temperature (Tm) of peptide-HLA complex; higher = more thermostable pHLA complex
- CONDITION LABEL: C1R-A*02:01
Over roughly 1,100 sequences, “thermal melting temperature (Tm) of peptide-HLA complex” has its median near 58; the lowest 2% begin near 42. This is one part of a sample in which the lowest values are shown more often than they occur.
MEASUREMENT LABEL: thermal melting temperature (°C)
The figure you give is taken to be in °C; do not add the unit.

Input HLIDDLLAA . Output thermal melting temperature: 41.1

Input NLYEEWTQV . Output thermal melting temperature: 59.9

Input FLDPNNIPKA . Output thermal melting temperature: 61.3

Input VMLDVPIRL . Output thermal melting temperature: 55.9

Input VMFGGKQVVV . Output thermal melting temperature: 57.5

Input FLMDFIHQV . Output thermal melting temperature: 62.2

Input VLLESEQFL . Output thermal melting temperature: 56.7

Input YLHDQNPDAAL . Output thermal melting temperature: 59

# credit: the supplement of paper PMC7726561
